experimental.target: full-length proMMP9(1-707) activation by catalytic MMP3 (Homo sapiens, UniProt P14780, R574P)
test: ProMMP9/MMP3 DQ Gelatin Activation Assay;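 note: readout is fluorescence of quenched fluorescein gelatin cut by activated MMP9, 30 min activation at 37 °C, inhibition relative to DMSO-only controls with EDTA as blank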
Type: biochemical
Design: made in house; host or cells: COS-1 (proMMP9); E. coli (MMP3)
details: proMMP9 from COS-1 cells; read-out: ProMMP9/MMP3 DQ gel, IC50
Overview of reported IC50 across a group of compounds:
// units = µM; emit number, no label

Check out these entries, answers already filled in.
{"columns": ["smiles.entry", "IC50 / µM"],
 "data": [
  ["CCOc1ccccc1Nc1nc(-c2sc(NC(C)=O)nc2C)cs1", 1.9],
  ["COc1ccc(OC)c(Nc2nc(-c3cccnc3)cs2)c1", 16.1],
  ["CCNc1nc(C)c(-c2csc(Nc3ccccc3OC)n2)s1", 9.6],
  ["COc1ccc(OC)c(Nc2nc(-c3c(C)nc4ccccn34)cs2)c1", 10.1],
  ["COc1ccccc1Nc1nc(-c2sc(NC(=O)c3ccccc3)nc2C)cs1", 21.2],
  ["COc1ccccc1Nc1nc(-c2ccncc2)cs1", 5.5]
]}

Turning now to a further record.
Qu. I would be grateful if you could share the reported IC50 for `COc1ccc(-c2csc(Nc3ccccc3OC)n2)cn1` .
Ans. 15.6

* * *

Quick note: these are IC50 numbers for system: human catalytic MMP3, MMP3(100-265) (Homo sapiens, UniProt P08254)
Sequence (P08254 with tags, fused parts or gaps): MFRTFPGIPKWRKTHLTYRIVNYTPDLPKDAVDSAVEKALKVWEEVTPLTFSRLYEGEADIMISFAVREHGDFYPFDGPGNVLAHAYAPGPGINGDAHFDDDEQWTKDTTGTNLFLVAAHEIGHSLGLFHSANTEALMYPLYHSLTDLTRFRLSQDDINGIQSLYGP

{"columns": ["compound", "observable", "value.observed"],
 "data": [
  ["COc1ccccc1Nc1nc(-c2sc(NC(C)=O)nc2C)cs1 [Example 65]", "IC50", "> 50 µM"]
]}

Qu. # IC50 lookup, item COc1ccc(Cl)cc1Nc1nc(-c2sc(NC(C)=O)nc2C)cs1 [Example 59]
Ans. > 50 µM

* * *

experimental.target: proMMP9(20-445;ΔFnII) (SEQ ID NO:6) (Homo sapiens, UniProt P14780, DEL216-390)
Construct: amino acid pairs including: 29-215/391-444, 67-215/391-444, and 20-215/391-445, respectively; start methionine (N)
Sequence (P14780 with tags, fused parts or gaps DEL216-390): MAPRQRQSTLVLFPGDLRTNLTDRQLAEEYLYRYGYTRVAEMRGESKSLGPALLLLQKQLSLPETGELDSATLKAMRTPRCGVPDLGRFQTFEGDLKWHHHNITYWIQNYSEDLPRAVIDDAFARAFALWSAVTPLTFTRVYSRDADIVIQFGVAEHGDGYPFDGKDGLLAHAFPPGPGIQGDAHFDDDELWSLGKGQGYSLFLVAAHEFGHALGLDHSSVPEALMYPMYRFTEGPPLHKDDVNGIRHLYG
test: ThermoFluor binding assay with proMMP9(20-445;ΔFnII)
Under this convention, 1 (yes) denotes Kd strictly below 10 µM and 0 (no) denotes Kd at or above 10 µM.

Qu. I wonder whether `CCOc1ccccc1Nc1nc(-c2sc(NC(=O)CC)nc2C)cs1` has Kd below 10 µM. Can you tell?
Ans. 0 (no)

Qu. Input `COc1ccc(Nc2nc(-c3sc(N)nc3C)cs2)c(OC)c1`
Ans. 0 (no)

Qu. What do we get for `CC(=O)Nc1nc(C)c(-c2csc(Nc3ccccc3OC(F)(F)F)n2)s1` ?
Ans. 1 (yes)

Qu. Next compound: `CCCOc1ccccc1Nc1nc(-c2cccnc2)cs1`
Ans. 0 (no)

Qu. Cool, now `c1cncc(-c2csc(Nc3ccccc3OCc3cccs3)n2)c1`
Ans. 1 (yes)

Qu. Try this compound next: `CC(=O)Nc1nc(C)c(-c2csc(Nc3cc(F)ccc3OC(C)C)n2)s1`
Ans. 0 (no)

Qu. Another compound to look at: `CCOc1ccccc1Nc1nc(-c2cnc3ncccn23)cs1`
Ans. 0 (no)

Qu. Also need `COc1ccc(-c2csc(Nc3ccccc3OC)n2)cn1` , thanks.
Ans. 0 (no)

Qu. Do the same for `COc1ccc(Br)cc1Nc1nc(-c2sc(N)nc2C)cs1` please
Ans. 1 (yes)

Qu. Do the same for `CCc1nc(N)sc1-c1nc(Nc2cc(Cl)ccc2OC)sc1C` please
Ans. 0 (no)
